System: Acinetobacter baumannii FADDI-AB030
method notes: microbe, parasite or virus in culture
Type: cell-based
assay context: FADDI-AB030
Where a SMILES comes first, the peptide text is derived from it. Bridges are numbered along the chain shown (N, C = ends). [ ]: non-standard residue; d: D form. The star is where a group is joined. Propanoyl(3-indol-3-yl) = O=C(CCc1c[nH]c2ccccc12)*; X6 = Cn1c(C(=O)*)cc2cc(Cl)ccc21; X22 = Cn1c(C(=O)*)cc2ccccc21; X23 = O=C(c1cc2ccccc2[nH]1)*; X13 = O=C(c1ccnc(Br)c1)*; Dab = NCC[C@H](N)C(=O)O; Abu = CC[C@H](N)C(=O)O; Dap = NC[C@H](N)C(=O)O
Entries and their measured Minimum inhibitory concentration follow.
endpoint: Minimum inhibitory concentration (µg/mL)

• CC[C@@H]1NC(=O)[C@@H](CC(C)C)NC(=O)[C@H](CCN)NC(=O)[C@@H](NC(=O)[C@H](CN)NC(=O)[C@@H](NC(=O)[C@H](CCN)NC(=O)c2cc3cc(Cl)ccc3n2C)[C@@H](C)O)CCNC(=O)[C@H]([C@@H](C)O)NC(=O)[C@H](CCN)NC(=O)[C@H](CCN)NC1=O [Compound 58] (X6-[Dab]T[Dap][Dab][Dab][dL][Abu][Dab][Dab]T; lactam 4-C) = 0.25
• CC(C)C[C@H]1NC(=O)[C@H](CCN)NC(=O)[C@@H](NC(=O)[C@H](CN)NC(=O)[C@@H](NC(=O)[C@H](CCN)NC(=O)c2cc3ccccc3n2C)[C@@H](C)O)CCNC(=O)[C@H]([C@@H](C)O)NC(=O)[C@H](CCN)NC(=O)[C@H](CCN)NC(=O)[C@H](C)NC1=O [Compound 65] (X22-[Dab]T[Dap][Dab][Dab][dL]A[Dab][Dab]T; lactam 4-C) = 0.5
• CC[C@@H]1NC(=O)[C@@H](CC(C)C)NC(=O)[C@H](CCN)NC(=O)[C@@H](NC(=O)[C@H](CN)NC(=O)[C@@H](NC(=O)[C@H](CCN)NC(=O)c2cc3ccccc3[nH]2)[C@@H](C)O)CCNC(=O)[C@H]([C@@H](C)O)NC(=O)[C@H](CCN)NC(=O)[C@H](CCN)NC1=O [Compound 56] (X23-[Dab]T[Dap][Dab][Dab][dL][Abu][Dab][Dab]T; lactam 4-C) = 0.25
• CC[C@@H]1NC(=O)[C@@H](CC(C)C)NC(=O)[C@H](CCN)NC(=O)[C@@H](NC(=O)[C@H](CN)NC(=O)[C@@H](NC(=O)[C@H](CCN)NC(=O)CCc2c[nH]c3ccccc23)[C@@H](C)O)CCNC(=O)[C@H]([C@@H](C)O)NC(=O)[C@H](CCN)NC(=O)[C@H](CCN)NC1=O [Compound 104] ({Propanoyl(3-indol-3-yl)}-[Dab]T[Dap][Dab][Dab][dL][Abu][Dab][Dab]T; lactam 4-C) = 0.5
• CC[C@@H]1NC(=O)[C@@H](CC(C)C)NC(=O)[C@H](CCN)NC(=O)[C@@H](NC(=O)[C@H](CN)NC(=O)[C@@H](NC(=O)[C@H](CCN)NC(=O)c2ccnc(Br)c2)[C@@H](C)O)CCNC(=O)[C@H]([C@@H](C)O)NC(=O)[C@H](CCN)NC(=O)[C@H](CCN)NC1=O [Compound 25] (X13-[Dab]T[Dap][Dab][Dab][dL][Abu][Dab][Dab]T; lactam 4-C) = 1
